TEST_METHOD_NOTES: Pharmacokinetics study in rat, IV
Assay type: in vivo, SD rat
SETTINGS: SD, plasma; Rat (10 mg/kg) single IV
QUANTITY_KIND: half-life

C[C@H](O/N=C(\C(=O)N[C@@H]1C(=O)N2C(C(=O)[O-])=C(C[n+]3cnc(N)c(NCCNC(=O)c4cc(=O)c(O)cn4O)c3)CSC12)c1nc(N)sc1Cl)C(=O)O (some centres unmarked) [Compound 4] | 37.2 min

# input If you can, please state the reported half-life value of CC(C)(O/N=C(\C(=O)N[C@@H]1C(=O)N2C(C(=O)[O-])=C(/C=C/C[n+]3cnc(N)c(NCCNC(=O)c4cc(=O)c(O)cn4O)c3)CSC12)c1csc(N)n1)C(=O)O (some centres unmarked) [Compound 8] .
# output 52.2 min

----------
# MIC90 values compiled below
Test system: P. aeruginosa 6065Y
TEST_METHOD_NOTES: In vitro antibacterial activity test (broth microdilution)
Assay type: cell-based
SETTINGS: Pseudomonas aeruginosa, read-out: MIC90
Field: numeric (µg/mL). Do not append units.

Here's what some known entries look like.
CC(C)(O/N=C(\C(=O)N[C@@H]1C(=O)N2C(C(=O)[O-])=C(/C=C/C[n+]3cnc(N)c(NC(=O)CCNC(=O)c4cc(=O)c(O)c[nH]4)c3)CSC12)c1csc(N)n1)C(=O)O (some centres unmarked) | 8
CC(=O)Nc1c[n+](CC2=C(C(=O)[O-])N3C(=O)[C@@H](NC(=O)/C(=N\OC(C)(C)C(=O)O)c4csc(N)n4)C3SC2)cnc1N (some centres unmarked) | 16
C[C@H](O/N=C(\C(=O)N[C@@H]1C(=O)N2C(C(=O)[O-])=C(/C=C/C[n+]3cnc(N)c(NCCNC(=O)c4cc(=O)c(O)cn4O)c3)CSC12)c1nc(N)sc1Cl)C(=O)O (some centres unmarked) | 0.5

# input For the compound CC(C)(O/N=C(\C(=O)N[C@@H]1C(=O)N2C(C(=O)[O-])=C(C[n+]3cnc(N)c(NC(=O)CCNC(=O)c4cc(=O)c(O)cn4O)c3)CSC12)c1nsc(N)n1)C(=O)O (some centres unmarked) , what MIC90 is on record?
# output 2

# input // next record CC(C)(O/N=C(\C(=O)N[C@@H]1C(=O)N2C(C(=O)[O-])=C(C[n+]3cnc(N)c(NC(=O)CCNC(=O)c4ccc(O)c(O)c4)c3)CSC12)c1csc(N)n1)C(=O)O (some centres unmarked)
# output 16

----------
Tested on: P. aeruginosa 43
TEST_METHOD_NOTES: In vitro antibacterial activity test (broth microdilution)
Format: cell-based
SETTINGS: Pseudomonas aeruginosa, 43
Reported MIC90 values for a set of compounds
Provide only the numeric value, understood in µg/mL.

CC(C)(O/N=C(\C(=O)N[C@@H]1C(=O)N2C(C(=O)[O-])=C(/C=C/C[n+]3cnc(N)c(NCCCN)c3)CSC12)c1nsc(N)n1)C(=O)O (stereo partly drawn) | 64
CC(C)(O/N=C(\C(=O)N[C@@H]1C(=O)N2C(C(=O)[O-])=C(C[n+]3cnc(NCCN)c(NCCNC(=O)c4cc(=O)c(O)cn4O)c3)CSC12)c1csc(N)n1)C(=O)O (stereo partly drawn) | 0.25
CC(C)(O/N=C(\C(=O)N[C@@H]1C(=O)N2C(C(=O)[O-])=C(/C=C/C[n+]3cnc(N)c(NCCN)c3)CSC12)c1nc(N)sc1Cl)C(=O)O (stereo partly drawn) | 64
CNCCNc1c[n+](C/C=C/C2=C(C(=O)[O-])N3C(=O)[C@@H](NC(=O)/C(=N\OC(C)(C)C(=O)O)c4csc(N)n4)C3SC2)cnc1N (stereo partly drawn) | 64
CC(C)(O/N=C(\C(=O)N[C@@H]1C(=O)N2C(C(=O)[O-])=C(/C=C/C[n+]3cnc(N)c(NC(=O)CCN)c3)CSC12)c1nc(N)sc1Cl)C(=O)O (stereo partly drawn) | 64

# input Form field: reported MIC90 of CC(C)(O/N=C(\C(=O)N[C@@H]1C(=O)N2C(C(=O)[O-])=C(/C=C/C[n+]3cnc(N)c(NCCN)c3N)CSC12)c1csc(N)n1)C(=O)O (stereo partly drawn)
# output 128

# input Next compound up: C[C@H](O/N=C(\C(=O)N[C@@H]1C(=O)N2C(C(=O)[O-])=C(/C=C/C[n+]3cnc(N)c(NCCN)c3)CSC12)c1csc(N)n1)C(=O)O (stereo partly drawn)
# output 32

# input Now the same for CC(C)(O/N=C(\C(=O)N[C@@H]1C(=O)N2C(C(=O)[O-])=C(C[n+]3cnc(NCCCCN)c(NCCCCN)c3)CSC12)c1csc(N)n1)C(=O)O (stereo partly drawn)
# output 128

# input Try this compound next: CC(C)(O/N=C(\C(=O)N[C@@H]1C(=O)N2C(C(=O)[O-])=C(/C=C/C[n+]3cnc(N)c(NC(=O)CCN)c3)CSC12)c1csc(N)n1)C(=O)O (stereo partly drawn)
# output 64

# input // repeat for CC(C)(O/N=C(\C(=O)N[C@@H]1C(=O)N2C(C(=O)[O-])=C(/C=C/C[n+]3cnc(N)c(NC(=O)CCCN)c3)CSC12)c1csc(N)n1)C(=O)O (stereo partly drawn) and report
# output 128
